Provide the reported melting point of each item.

IN: Identify measured melting point associated with `CC(C)Cn1nc(-c2ccc(O)cc2O)c2cccc(C(F)(F)F)c21`
OUT: 91 to 92 °C

IN: Identify measured melting point associated with CCc1c(C)c(NC(=O)NCCO)c(C)c2c1OCC2c1ccc(C(C)C)cc1 (stereo not given)
OUT: 147 to 148 °C

IN: Identify measured melting point associated with `CCNc1c([N+](=O)[O-])cc(C(C)(C)C)cc1[N+](=O)[O-]`
OUT: 70 to 73 °C

IN: Identify measured melting point associated with CSC(SC)=C1CCC2CC=CC=C2C1=O (stereo not given)
OUT: 54 to 56 °C

IN: Identify measured melting point associated with CCCn1nc(SC2CCC(CC(=O)O)CC2)c(C(=O)O)c1Cc1cc2c(cc1Cl)OCO2 (stereo not given)
OUT: 178 °C

IN: Identify measured melting point associated with `FC(F)(F)c1cccc(N2CCN(Cc3ccc(-c4ccccc4)o3)CC2)c1`
OUT: 56 °C

IN: Identify measured melting point associated with `CCOc1ccn2c(C)c(CCc3ccc4nc(N)oc4c3)nc2c1`
OUT: 207 to 208 °C

IN: Identify measured melting point associated with `O=C(Nc1cc[nH]c(=O)n1)OCc1ccccc1`
OUT: > 250 °C

IN: Identify measured melting point associated with COc1ccc(CC(C)NC(=O)N(C)O)cc1OC (stereo not given)
OUT: 78 to 80 °C

IN: Identify measured melting point associated with CCOP(=O)(CNC(C)(c1ccccc1)c1cc(C(C)(C)C)c(O)c(C(C)(C)C)c1)OCC (stereo not given)
OUT: 104 to 105 °C

###

Provide the reported melting point of each item.

IN: Identify measured melting point associated with CC(C)c1ccc(N(Cc2cnn(C(C)C)c2)C(=O)C2CCCc3c(O)cccc32)cc1 (centres undefined)
OUT: 185 °C

IN: Identify measured melting point associated with `COC(=O)c1cnc(COC(=O)C(C)(C)Oc2ccc(Cl)cc2)s1`
OUT: 80 °C

IN: Identify measured melting point associated with COC(=O)CCCCCCCCOC1OC(CO)C(OC2OC(C)C(O)C(O)C2O)C(O)C1NC(C)=O (centres undefined)
OUT: 145 to 146 °C

IN: Identify measured melting point associated with `O=S(=O)(Cc1ccc(Br)cc1)c1nc(-c2ccncc2)ns1`
OUT: 173 °C

IN: Identify measured melting point associated with Cc1ccc(CON2C(C(F)(F)F)C(C(=O)Nc3ccccc3)=CN2C)c(C)c1 (centres undefined)
OUT: 123 to 125 °C

IN: Identify measured melting point associated with `CCOC(=O)CCCn1c(C(=O)NCc2nnc(C)n2-c2sc(CC)cc2C(=O)c2ccccc2Cl)cc2cc(F)ccc21`
OUT: 127 to 128 °C

IN: Identify measured melting point associated with `Cc1c2c(c(C(=O)c3ccc(C(C)C)cc3)c(C)c1NC(=O)CC(C)(C)C)OC(C)(C)C2`
OUT: 194 to 195 °C

IN: Identify measured melting point associated with `CCSc1ccc(N)c(C(=O)O)c1`
OUT: 97 to 100 °C

IN: Identify measured melting point associated with `CC(C)C[C@H](N)[C@@H](O)CCSCCc1ccccc1`
OUT: 95 to 96 °C

###

Provide the reported melting point of each item.

IN: Identify measured melting point associated with `CC(=O)N[C@@H](C)COc1ccc2nc(-c3ccc(OCC4CC4)c(F)c3F)oc2c1F`
OUT: 168 °C

IN: Identify measured melting point associated with `COCCc1nc2c(N)nc3cc(-c4cncc(CO)c4)ccc3c2n1CC(C)(C)O`
OUT: 210 to 211 °C

IN: Identify measured melting point associated with `COc1cc(COc2ncccc2CO)ccc1OCc1nc(-c2ccccc2)oc1C`
OUT: 143 to 144 °C

IN: Identify measured melting point associated with Cc1cc(C(=O)NN)ccc1-c1ccc(C(=O)C2CN(C)CCC23COc2cc4c(cc23)NCC4)cc1 (stereo not given)
OUT: 130 to 135 °C

IN: Identify measured melting point associated with `CCOC(=O)c1sc(SC)c2c1CCc1cn[nH]c1-2`
OUT: 207 to 208 °C

IN: Identify measured melting point associated with `O=c1oc(-c2cccc(Cl)c2)nc2ccccc12`
OUT: 158 to 160 °C

IN: Identify measured melting point associated with `CC(=O)NC[C@H]1CN(c2ccc(C3=CCCCO3)c(F)c2)C(=O)O1`
OUT: 161 to 163 °C

IN: Identify measured melting point associated with `CCCc1c(OC(=O)OCC)ccc2oc(Cc3ccc(OC)cc3)c(C)c12`
OUT: 51 to 53 °C

IN: Identify measured melting point associated with `Cc1ccc(Nc2cccc(O)c2)cc1`
OUT: 86 to 88 °C

IN: Identify measured melting point associated with CCCCCCCCCCCCON(Cc1ccccc1)C(c1ccccc1)P(=O)(OCCCCCCCCCCCC)OCCCCCCCCCCCC (stereo not given)
OUT: 38 to 40 °C

IN: Identify measured melting point associated with `CC(=CC(=O)c1cccc(C(F)(F)F)c1)N(C)C`
OUT: 69 to 70 °C

IN: Identify measured melting point associated with `Cc1ccccc1-c1coc2cc(O)cc(Cl)c2c1=O`
OUT: > 290 °C

IN: Identify measured melting point associated with `CCc1cc(C(=O)CBr)ccc1O`
OUT: > 260 °C

IN: Identify measured melting point associated with `O=C1c2c(Cl)cc(Cl)c(Cl)c2C(=O)N1c1ccccc1`
OUT: 199 to 200 °C

IN: Identify measured melting point associated with `O=C(Nc1cc(N2CCNCC2)cc(C(F)(F)F)c1)c1cccc2cc(Oc3ccnc(NC(=O)C4CC4)c3)ccc12`
OUT: 244 to 247 °C

IN: Identify measured melting point associated with `COc1cc(-c2ccc(C#N)o2)ccc1Br`
OUT: 76 to 77 °C

IN: Identify measured melting point associated with `C#Cc1c(NC)c(F)cc2c(=O)c(C(=O)O)cn(-c3cc(N)c(F)cc3F)c12`
OUT: 208 to 209 °C

IN: Identify measured melting point associated with `O/N=C(/c1ccc(Cl)cc1)C1CC1`
OUT: 101 to 103 °C

IN: Identify measured melting point associated with `CNc1ccc2ccccc2c1-c1c(P(c2ccccc2)c2ccccc2)ccc2ccccc12`
OUT: 100 °C

IN: Identify measured melting point associated with `N#Cc1c(C(F)(F)F)nn(-c2c(Cl)cc(S(=O)(=O)C(F)(F)F)cc2Cl)c1[N+](=O)[O-]`
OUT: 168 to 169 °C

The reported numbers originate from a melting point compilation (Tetko et al.; mined from patent text by program, amines drawn as free bases though some values may be those of a salt).
